Tested on: Fusarium oxysporum f. sp. vasinfectum
Assay: Antifungal activity against Fusarium oxysporum f. sp. vasinfectum at 28 degC after 48 hr microbroth dilution method
Format: functional
In this section we review reported MIC values for a set of molecules.

| chemical-smiles | inequality-sign | MIC [µg/mL] |
| --- | --- | --- |
| C[C@@H]1C(=O)N2c3ccccc3[C@@]3(O)C[C@H](n4cnc5ccccc5c4=O)C(=O)N1[C@H]23 | > | 100 |
| COc1ccc2c3c([nH]c2c1)[C@H](C=C(C)C)N1C(=O)[C@@H]2CCCN2C(=O)[C@@]1(O)[C@H]3OC | = | 25 |
| C[C@H]1NC(=O)[C@@H](Cc2c[nH]c3ccccc23)n2c1nc1ccccc1c2=O | = | 50 |
| Cc1cc(O)no1 | = | 25 |
| COc1ccc2c3c([nH]c2c1)[C@H](CC(C)(C)O)N1C(=O)[C@@H]2CCCN2C(=O)[C@@]1(O)[C@H]3OC | = | 25 |
